Hello, the source for this data is PubChem BioAssay, in case you need it.

test target: Short transient receptor potential channel 4 (Mus musculus) (UniProt Q9QUQ5)
Sequence (Q9QUQ5 whole entry, looked up): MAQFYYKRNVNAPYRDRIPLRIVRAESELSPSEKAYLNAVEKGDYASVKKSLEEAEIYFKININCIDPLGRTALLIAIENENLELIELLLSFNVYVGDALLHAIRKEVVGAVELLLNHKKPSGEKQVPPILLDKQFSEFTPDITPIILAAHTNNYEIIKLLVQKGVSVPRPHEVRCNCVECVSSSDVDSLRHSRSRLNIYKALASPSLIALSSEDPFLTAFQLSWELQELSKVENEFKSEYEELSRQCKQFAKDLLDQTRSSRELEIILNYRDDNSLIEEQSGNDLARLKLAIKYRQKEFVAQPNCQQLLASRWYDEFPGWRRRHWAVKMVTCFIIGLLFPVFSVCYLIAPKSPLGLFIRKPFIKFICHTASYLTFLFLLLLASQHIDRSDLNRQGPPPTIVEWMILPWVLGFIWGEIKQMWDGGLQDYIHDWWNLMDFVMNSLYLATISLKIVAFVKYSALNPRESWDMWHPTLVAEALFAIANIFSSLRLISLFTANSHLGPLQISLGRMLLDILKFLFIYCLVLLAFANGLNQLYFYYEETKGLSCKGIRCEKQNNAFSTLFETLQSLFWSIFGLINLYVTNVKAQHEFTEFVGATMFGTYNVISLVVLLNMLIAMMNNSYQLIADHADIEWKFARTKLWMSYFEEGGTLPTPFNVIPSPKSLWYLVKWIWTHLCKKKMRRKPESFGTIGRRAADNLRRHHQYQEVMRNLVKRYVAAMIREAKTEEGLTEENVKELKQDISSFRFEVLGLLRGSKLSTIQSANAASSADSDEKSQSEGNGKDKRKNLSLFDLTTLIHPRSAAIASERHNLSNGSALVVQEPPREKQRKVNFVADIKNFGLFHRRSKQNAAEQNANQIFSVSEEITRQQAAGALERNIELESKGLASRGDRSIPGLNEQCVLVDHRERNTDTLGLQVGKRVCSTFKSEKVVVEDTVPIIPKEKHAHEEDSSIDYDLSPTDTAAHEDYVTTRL
procedure text: blockers of DAMGO-evoked TRPC4 calcium flux – cell-based, second round, Fluo4, HEK293 TRPC4beta/mu-opioid, 1 µM, confirmation (AID 2637);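 as to inhibition: percent of integrated ratio relative to wells lacking test compound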
settings: at 1 µM; active compounds read high
Activity calls are given as the source filed them.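 The calls were made as follows: active = calcium signal ratio cut to more than 3 SD under the fully stimulated control mean yet still positive, in both repeats and the primary screen; inactive = the rest.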
property measured: inhibition

Answered cases to consult:
IN: Provide inhibition, recorded with Short transient receptor potential channel 4 (Mus musculus) (UniProt Q9QUQ5), of `Cc1ccc2oc(C(=O)N3CCC(O)(c4ccccc4)CC3)c(C)c2c1`
OUT: inactive

IN: For Short transient receptor potential channel 4 (Mus musculus) (UniProt Q9QUQ5), give inhibition of the listed molecule: COc1ccccc1N(C(=O)c1snc(C(N)=O)c1N)C(C(=O)NCc1ccccc1)c1ccc(O)cc1 (stereo not given)
OUT: 51% (active)

IN: Recall the reported inhibition of `Cc1cc(-c2csc3ncnc(N4CCN(C)CC4)c23)cc(C)c1C` on Short transient receptor potential channel 4 (Mus musculus) (UniProt Q9QUQ5) and write it down.
OUT: 49% (active)

IN: Return reported inhibition for target or system Short transient receptor potential channel 4 (Mus musculus) (UniProt Q9QUQ5), item `CCN1CCN(c2ccc(S(=O)(=O)N3CCOCC3)cc2NC(=O)c2ccccc2OC(F)F)CC1` .
OUT: inactive

IN: Lab note: record inhibition of COc1cc(OC)c2c(-c3ccccc3)cc(=O)oc2c1C(CCN1CCCCC1)c1ccc(N(C)C)cc1 (stereo not given) tested on Short transient receptor potential channel 4 (Mus musculus) (UniProt Q9QUQ5).
OUT: inactive

IN: Fill: inhibition (Short transient receptor potential channel 4 (Mus musculus) (UniProt Q9QUQ5)) for this molecule `CN(C)CCNC(=O)c1c(NC(=O)c2ccccc2)sc2c1CCCC2`
OUT: inactive

Others:
IN: Please look at COc1ccc(/C=N/NC(=O)c2ccc(F)cc2)cc1CN1CCc2cc(OC)c(OC)cc2C1C (stereo not given) and tell me its recorded inhibition on Short transient receptor potential channel 4 (Mus musculus) (UniProt Q9QUQ5).
OUT: inactive

IN: Report value only: inhibition, Short transient receptor potential channel 4 (Mus musculus) (UniProt Q9QUQ5), `CCN(C(=O)c1cnc(NC(C)C)cc1C(F)(F)F)c1ccc(Cl)cc1Cl`
OUT: inactive

IN: # assay system Short transient receptor potential channel 4 (Mus musculus) (UniProt Q9QUQ5): give inhibition of CCCC1=C(C(=O)OCC)C(c2cc(Cl)cc(OC)c2OCC(=O)OCC)NC(=O)N1 (stereo not given)
OUT: inactive

IN: Give inhibition only, for `O=S(=O)(c1ccc(Cl)cc1Br)N1CCCCC1` , using Short transient receptor potential channel 4 (Mus musculus) (UniProt Q9QUQ5) data.
OUT: inactive

----------
System: transient receptor potential cation channel C4 beta (TRPC4), mouse
procedure text: TRPC4 cation channel opening, second retest – cell-based, second round, Fluo4, HEK293 TRPC4beta/mu-opioid, 1 µM, confirmation (AID 2461)
settings: Fluo4 calcium fluorescence, at 1 µM
Calls of active or inactive are those of the source.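 Rule for the calls: active = primary screen active and over 50% activation in each of two duplicate runs; inactive = the rest.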
Mark one answer only. Choices: active, inactive

IN: Write down the call the test reported for this compound. Item: COc1ccc(C(CNC(=O)c2cccc(NS(=O)(=O)c3ccc(Br)cc3)c2)N(C)C)cc1 (stereo not given)
OUT: active

IN: Per the records of this test, what outcome belongs to `O=C(O)c1ccc(-c2ccc(/C=N/Nc3ccc([N+](=O)[O-])cc3)o2)cc1` ?
OUT: inactive

IN: Hey, what did the test say about `Cn1c(/N=C/c2ccccc2[N+](=O)[O-])nc2ccccc21` ?
OUT: inactive

IN: For this compound, state the assay outcome: `O=C(Nc1ccc(Oc2ccccc2)nc1)C1CCN(Cc2ccccc2)CC1`
OUT: inactive

IN: Hey, what did the test say about `Cc1ccccc1OCCn1c(C)nc2ccccc21` ?
OUT: inactive

----------
test target: Short transient receptor potential channel 4 (Mus musculus) (UniProt Q9QUQ5)
procedure text: blockers of DAMGO-evoked TRPC4 calcium flux – cell-based, second round, Fluo4, HEK293 TRPC4beta/mu-opioid, 1 µM, confirmation (AID 2637)
settings: at 1 µM
The source made the active and inactive calls.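 The calls were made as follows: active = calcium signal ratio cut to more than 3 SD under the fully stimulated control mean yet still positive, in both repeats and the primary screen; inactive = the rest.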
Choose one outcome from this list and give only that: YES (active), NO (inactive)

IN: Hi team, can someone confirm the assay call for `Cc1ccc(-c2cn(-c3ccccc3)c(SCC(N)=O)n2)cc1C` ?
OUT: NO

IN: Hi, sorry to bother you, what did the test record for `Fc1ccccc1Sc1ccccc1CNC1=NCCN1` ?
OUT: YES

IN: Look up the recorded call for CCOC(=O)C1=C(CNCCc2ccc(Cl)cc2)NC(=O)NC1c1cccc([N+](=O)[O-])c1 (configuration not stated) in this test.
OUT: NO

IN: Test call, this compound: `C(=N\N(Cc1ccccc1)c1ccccc1)/c1cccnc1`
OUT: NO

IN: Called result for `CCCCN1/C(=C/c2ccc3ccccc3[n+]2CC)Sc2ccccc21`
OUT: NO

IN: Please indicate how the test categorized `Cc1ccc(Nc2cc(C)nc3ccc(C)cc23)cc1` .
OUT: NO

IN: Per the records of this test, what outcome belongs to `COc1ccc2c(c1)c1ncn(CCN3CCCC3)c(=O)c1n2C` ?
OUT: NO

IN: Test call, this compound: `Cc1ccc(CSc2nc(-c3ccccc3)c(C#N)c(=O)[nH]2)cc1`
OUT: YES

IN: Assay result, entry `CC(C)C1=Nc2cccc3cccc(c23)N1` — outcome?
OUT: YES

IN: Check the results log: what was the call for `Cc1cc(C)c(C)c(S(=O)(=O)NCc2ccco2)c1C` ?
OUT: NO

IN: For this compound, state the assay outcome: `Cc1nn(C(=O)c2cccnc2)c(C)c1Sc1ccccc1`
OUT: NO

IN: Lab log entry: `Clc1ccc(CN2C3=NCCN3c3ccccc32)cc1` — outcome as called in the assay?
OUT: YES

----------
test target: Short transient receptor potential channel 4 (Mus musculus) (UniProt Q9QUQ5)
procedure text: blockers of DAMGO-evoked TRPC4 calcium flux – cell-based, Fluo4, HEK293 TRPC4beta/mu-opioid, confirmation (AID 2636)
settings: at 10 µM
Calls of active or inactive are those of the source.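 The calls were made as follows: active = calcium signal cut by more than 3 SD below the full-agonist control yet still positive, in both repeats and the earlier primary screen; inactive = the rest.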
One label from this list, please: active, inactive

IN: What did the test return for `O=C(CN1CCCCC1)N=Nc1c(O)[nH]c2ccccc12` ?
OUT: active

IN: Record request — test call for `Cc1[nH]n(C)c(=O)c1C(=O)c1c(-c2c(Cl)cccc2Cl)noc1C`
OUT: active

IN: For COc1ccc(N(C(=O)c2snc(C(N)=O)c2N)C(C(=O)NC2CCCCC2)c2ccc(C)o2)c(OC)c1 (stereo not given) , which call appears in the assay record?
OUT: inactive

IN: I'd appreciate the recorded outcome for `CCOc1ccc2nc(NCCNC(=O)C3CC3)c(C)cc2c1` from this test.
OUT: inactive

IN: For this molecule, state the assay outcome: `Cc1sc(NC(=O)c2ccccc2)c(C(=O)NCCN(C)C)c1C`
OUT: inactive

IN: // return assay outcome for CN(C)C(CNC(=O)c1ccccc1OCc1ccc(Cl)cc1)c1ccco1 (stereo not given)
OUT: active

IN: # lookup: test call for `CCCCN(CC)CCCNC(=O)c1csc2c1CCCCC2`
OUT: inactive

IN: Give the logged outcome of this assay for the following molecule: CC(=O)N1N=C(c2ccc(Br)cc2)OC1(C)CC(=O)Nc1ccccc1 (stereo not given)
OUT: inactive

IN: Per the assay record, what outcome was assigned to `COc1ccc(NS(=O)(=O)c2ccc3ccccc3c2)c2ncccc12` ?
OUT: inactive

IN: Tell me the assay call for `CCCCc1nnc(NC(=O)C2CCN(c3ncnc4sc(C)c(C)c34)CC2)s1` please.
OUT: inactive

IN: Which result was noted for this molecule in the test: `COc1ccc(C)c(NC(=O)NCCc2cnc[nH]2)c1`
OUT: inactive

IN: What classification did `COc1cc(CNC2CCCC2)c(Br)cc1OCc1ccccc1` end up with in this test?
OUT: active

IN: Returns: the outcome recorded for Cc1cc2oc(C(=O)N(Cc3ccco3)C3CCS(=O)(=O)C3)cc(=O)c2cc1Cl (stereo not given) in this assay.
OUT: inactive

IN: Entry `COC(=O)CSc1nn(-c2ccc(F)cc2)c(=S)s1` : call = ?
OUT: active

IN: Called result for `Clc1ccc(CN2C3=NCCN3c3ccccc32)cc1Cl`
OUT: inactive

IN: What outcome does the record of this test show for Cc1ccc(NC(=S)NC2CC3CCC(C2)N3Cc2ccco2)c(C)c1 (stereo not given) ?
OUT: inactive

IN: I would be grateful if you could indicate the recorded call for `Cc1[nH]nc(-c2ccc(O)cc2O)c1-c1ccc(Cl)cc1` .
OUT: active

IN: Can you look up the reported call for `COC(=O)/C=C1\SC(=NC(=O)c2cccc(Cl)c2)NC1=O` for me?
OUT: active

IN: Lab log entry: `CN(C)CCNC(=O)c1scc2c1CCCC2` — outcome as called in the assay?
OUT: inactive

IN: Name the outcome recorded for `CCCCN(CC)CCNC(=O)c1cc2c(=O)n(C)c3ccccc3c2s1` in the assay.
OUT: inactive

IN: How did this test come out for `Cc1ccc(Cn2c(=N)c(C(=O)NC3CCCCC3)cc3c(=O)n4ccccc4nc32)cc1` ?
OUT: inactive

IN: Please share the test call associated with `O=C(Cn1nc(-c2ccccc2)ccc1=O)NCCN1CCN(Cc2ccccc2)CC1` .
OUT: inactive

IN: Which outcome was assigned to `Cc1cc(C)c(S(=O)(=O)N2CCN(C)CC2)c(C)c1` in this test?
OUT: inactive

IN: What was the test verdict on `CCC(=O)c1ccc(N2CCN(C(=O)c3ccccc3Br)CC2)c(F)c1` ?
OUT: inactive

IN: Recorded test outcome, item `CCN1CCN(Cc2nc3c(c(=O)[nH]c(=O)n3C)n2Cc2ccccc2Cl)CC1`
OUT: inactive

IN: Which outcome was entered for the molecule Oc1c(Br)cc(C2N=C(c3ccccc3Cl)NO2)cc1Br (stereo not given) in this test?
OUT: inactive

IN: Just curious, what result did `COc1ccc(Cl)cc1N/C(N)=N/c1nc(C)cc(C)n1` get here?
OUT: active

IN: How did this test come out for `CC(=O)Oc1c(C)cc(O)c2ccccc12` ?
OUT: inactive

IN: What call does the record list for `Cc1ccc(O)c(Sc2cc(C)ccc2O)c1` ?
OUT: active

IN: Recorded test call requested for `C=CCn1cnc2scc(-c3ccc(CC)cc3)c2c1=O`
OUT: active

IN: State the result this test recorded for COc1ccc(CNC(=O)C(C)NCc2ccc(S(N)(=O)=O)cc2)cc1 (stereo not given) .
OUT: inactive

IN: // outcome(item) with item = `CCCn1c(NCc2ccc(C)o2)nc2ccccc21`
OUT: active

IN: Per the records of this test, what outcome belongs to COc1ccc(CC(=O)NCC(c2ccc(OC)cc2)N(C)C)cc1 (stereo not given) ?
OUT: inactive

IN: Each molecule tested received a call. Report the one for `CC(C)c1ccc(S(=O)(=O)/N=C2\C=C(NS(=O)(=O)c3ccccc3)C(=O)c3ccccc32)cc1` .
OUT: active

IN: Assay result, entry `O=C(CN1CCCN(S(=O)(=O)c2ccc(F)cc2)CC1)Nc1ccccc1Br` — outcome?
OUT: active

IN: Could you kindly confirm the outcome this assay logged for `O=C(C[n+]1cc(-c2ccc(Cl)c(Cl)c2)n2c1CCC2)N1c2ccccc2Sc2ccccc21` ?
OUT: active

IN: Which outcome was entered for the molecule COc1ccc(C(CNC(=O)COc2ccccc2OC)N(C)C)cc1OC (stereo not given) in this test?
OUT: inactive

IN: Please state the recorded outcome for this molecule: CCOC(=O)c1c(NC(NC(C)=O)C(Cl)(Cl)Cl)sc2c1CCCC2 (stereo not given)
OUT: inactive

IN: Record lookup: outcome of this test for `CCCN(CCC)CCCNC(=O)CNC(=O)c1nn(-c2ccc(OC)cc2)c(=O)c2ccccc12` ?
OUT: inactive

IN: How did this test come out for `COc1ccc(CNc2ccc(Cl)cc2)cc1Cn1ccnc1` ?
OUT: inactive

IN: Query: recorded result category for COc1ccc(C(CNC(=O)C2CC2)N(C)C)cc1 (stereo not given) in this test
OUT: inactive

IN: Which outcome was entered for the molecule CC1CCC2C(C1)c1sc(=O)[nH]c1SC2(C)C (stereo not given) in this test?
OUT: inactive

IN: Returns: the outcome recorded for `COc1cc(CN2CCC(CO)(CCOc3ccccc3)CC2)cc(OC)c1` in this assay.
OUT: active

IN: Query: recorded result category for `CC(C)CCNC(=O)CCC(=O)NNc1nc2ccccc2c2nc(-c3ccccc3)nn12` in this test
OUT: inactive

IN: # fetch the recorded call for CN(C)c1ccc(NC(=O)C2C3C=CC(C3)C2C(=O)O)cc1 (stereo not given) here
OUT: inactive
